- system-name: IL-17A(FLAG-tagged): IL-17RA(His-tagged) (Homo sapiens, UniProt Q16552, K93Q)
- Sequence (Q16552 with tags, fused parts or gaps K93Q): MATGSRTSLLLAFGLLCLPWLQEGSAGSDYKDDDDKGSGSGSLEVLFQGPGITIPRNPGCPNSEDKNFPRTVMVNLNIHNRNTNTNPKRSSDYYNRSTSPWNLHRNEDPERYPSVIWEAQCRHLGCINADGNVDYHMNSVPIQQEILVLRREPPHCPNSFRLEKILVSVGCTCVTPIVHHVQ
- test-description: IL-17A(FLAG-tagged): IL-17RA(His-tagged) binding disruption Eu-HTRF assay
- experimental-context: class of the average IC50 where tested more than once
pIC50: −log10 of the molar value.
measured-parameter: pIC50

Below, 2 molecules whose answers are already recorded.
O=C(N[C@H](c1cn2ncc(C[C@H]3C[C@H](C(F)(F)F)NC3=O)cc2n1)C1CCC(F)(F)CC1)c1nonc1C1CC1 (relative stereo) : 5.40 to 6.40
O=C(N[C@H](c1cn2ncc(C[C@@H]3C(=O)NC[C@@H]3C(F)(F)F)cc2n1)C1CCC(F)(F)CC1)c1nonc1C1CC1 (relative stereo) : 5.40 to 6.40

I am curious: what pIC50 value has been reported for Cc1nonc1C(=O)N[C@H](c1cn2ncc(C[C@@H]3CC[C@H](C(F)(F)F)NC3=O)cc2n1)C1CCC(F)(F)CC1 (relative stereo) ?
< 5.40

I am curious: what pIC50 value has been reported for Cc1nonc1C(=O)N[C@H](c1cn2ncc(CC3C[C@@H](C(F)(F)F)NC3=O)cc2n1)C1CCC(F)(F)CC1 (single isomer, unassigned) [Example 10] ?
< 5.40

I am curious: what pIC50 value has been reported for CC[C@@H]1C[C@H](Cc2cnn3cc([C@@H](NC(=O)c4nonc4C4CC4)C4CCC(F)(F)CC4)nc3c2)C(=O)N1 (relative stereo) ?
> 6.40
